Target: Sodium-dependent dopamine transporter (Rattus norvegicus, UniProt P23977)
Sequence (P23977 whole entry): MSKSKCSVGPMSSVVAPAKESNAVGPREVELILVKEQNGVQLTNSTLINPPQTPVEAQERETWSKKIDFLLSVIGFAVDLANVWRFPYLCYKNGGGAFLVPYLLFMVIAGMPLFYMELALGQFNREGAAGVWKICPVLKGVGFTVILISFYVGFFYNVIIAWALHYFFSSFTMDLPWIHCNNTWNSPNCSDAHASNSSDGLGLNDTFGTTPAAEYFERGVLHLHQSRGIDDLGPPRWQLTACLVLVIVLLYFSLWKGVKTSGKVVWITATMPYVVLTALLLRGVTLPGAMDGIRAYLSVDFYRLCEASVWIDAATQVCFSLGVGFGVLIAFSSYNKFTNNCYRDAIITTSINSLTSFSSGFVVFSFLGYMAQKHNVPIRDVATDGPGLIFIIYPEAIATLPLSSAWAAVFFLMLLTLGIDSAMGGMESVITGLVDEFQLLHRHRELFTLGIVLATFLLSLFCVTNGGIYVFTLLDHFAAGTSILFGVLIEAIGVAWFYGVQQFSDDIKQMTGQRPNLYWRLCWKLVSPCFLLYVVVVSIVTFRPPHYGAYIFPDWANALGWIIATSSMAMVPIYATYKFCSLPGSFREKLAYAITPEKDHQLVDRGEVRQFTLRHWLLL
Test: Inhibition of the uptake of tritiated dopamine (DA) in rat synaptosomes
Friendly reminder: Ki below 20 nM is true (1), at or above is false (0).

{"columns": ["COMPOUND_SMILES", "CLASSIFICATION"],
 "data": [
  ["Fc1cccc(Cl)c1[C@@H]1CN2CCC[C@@H]2c2ccccc21", "false (0)"],
  ["COc1cccc2c1[C@H](c1ccccc1)CN1CCC[C@H]21", "true (1)"],
  ["COc1cc2c(cc1OC)[C@H]1CCCN1C[C@H]2c1ccccc1", "true (1)"],
  ["Br.Oc1cccc([C@@H]2CN3CCC[C@H]3c3ccccc32)c1", "false (0)"],
  ["Br.Oc1ccc([C@@H]2CN3CCC[C@H]3c3ccccc32)cc1O", "false (0)"],
  ["Br.COc1ccc2c(c1)[C@@H]1CCCN1C[C@H]2c1ccccc1", "false (0)"],
  ["O=C(Nc1ccccc1)Nc1ccc([C@@H]2CN3CCC[C@@H]3c3ccccc32)cc1", "false (0)"],
  ["COc1ccc2c(c1)[C@H]1CCCN1C[C@H]2c1ccccc1", "true (1)"],
  ["Br.Brc1ccccc1[C@@H]1CN2CCC[C@@H]2c2ccccc21", "false (0)"]
]}

* * *

Biological target: D(2) dopamine receptor (Rattus norvegicus) (UniProt P61169)
Sequence (P61169 whole entry): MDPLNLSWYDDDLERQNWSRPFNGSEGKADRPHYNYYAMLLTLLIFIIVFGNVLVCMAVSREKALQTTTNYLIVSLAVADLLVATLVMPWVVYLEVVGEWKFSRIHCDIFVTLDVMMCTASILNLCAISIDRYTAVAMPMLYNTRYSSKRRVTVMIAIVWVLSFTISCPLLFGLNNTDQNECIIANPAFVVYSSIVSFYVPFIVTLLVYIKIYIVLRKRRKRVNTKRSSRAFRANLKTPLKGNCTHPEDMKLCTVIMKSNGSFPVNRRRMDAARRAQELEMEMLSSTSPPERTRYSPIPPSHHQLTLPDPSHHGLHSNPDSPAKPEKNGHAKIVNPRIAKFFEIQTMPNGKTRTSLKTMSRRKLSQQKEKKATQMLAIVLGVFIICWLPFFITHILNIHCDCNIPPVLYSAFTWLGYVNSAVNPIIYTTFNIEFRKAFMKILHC
Assay: Binding affinity towards dopamine receptor D2 at 1.0 uM concentration
Classify by measured inhibition: class 1 if it is equal to or exceeds 30%, class 0 if it is smaller.

{"columns": ["COMPOUND", "CLASSIFICATION"],
 "data": [
  ["Br.CSc1ccc([C@@H]2CN3CCC[C@H]3c3ccccc32)cc1", "class 0"],
  ["Br.Oc1ccc([C@@H]2CN3CCC[C@@H]3c3ccccc32)cc1O", "class 0"],
  ["FC(F)(F)c1cccc([C@@H]2CN3CCC[C@@H]3c3ccccc32)c1 (stereo in doubt; (-)-37b)", "class 0"],
  ["Br.Oc1cc2c(cc1O)[C@H]1CCCN1C[C@H]2c1ccccc1", "class 0"],
  ["CSc1ccc([C@@H]2CN3CCC[C@@H]3c3ccccc32)cc1 (stereo in doubt; (-)-48b)", "class 0"],
  ["Br.Clc1ccc([C@@H]2CN3CCC[C@@H]3c3ccccc32)cc1", "class 1"],
  ["Br.Clc1ccccc1[C@@H]1CN2CCC[C@H]2c2ccccc21", "class 1"],
  ["Br.Oc1ccc([C@@H]2CN3CCC[C@H]3c3ccccc32)cc1", "class 1"],
  ["Br.Fc1ccc([C@@H]2CN3CCC[C@H]3c3cc(F)ccc32)cc1", "class 1"],
  ["CNCCC(Oc1ccc(C(F)(F)F)cc1)c1ccccc1 (configuration not stated)", "class 0"],
  ["CN1CCc2cc(Cl)c(O)cc2[C@@H](c2ccccc2)C1", "class 1"],
  ["COc1cccc([C@@H]2CN3CCC[C@@H]3c3ccccc32)c1", "class 0"]
]}

* * *

Target: Adrenergic receptor alpha-1 (Rattus norvegicus, UniProt P15823+P23944+P43140)
Assay: Binding affinity towards alpha-1 adrenergic receptor
Assay type: protein assay
# maps each entry to its Ki
MEASURED_PARAMETER: Ki

{"columns": ["COMPOUND", "VALUE_OBSERVED"],
 "data": [
  ["Br.Clc1ccccc1[C@@H]1CN2CCC[C@@H]2c2ccccc21 (stereo in doubt; 24b)", "163 nM"],
  ["Br.COc1cc([C@@H]2CN3CCC[C@@H]3c3ccccc32)cc(OC)c1OC", "29 nM"],
  ["Br.Oc1ccc([C@@H]2CN3CCC[C@@H]3c3ccccc32)cc1O", "675 nM"],
  ["Br.Clc1ccccc1[C@@H]1CN2CCC[C@H]2c2ccccc21", "41 nM"],
  ["c1ccc([C@@H]2CN3CCC[C@@H]3c3ccccc32)cc1 (stereo in doubt; (+)-7b)", "83 nM"],
  ["Br.Clc1ccccc1[C@@H]1CN2CCC[C@@H]2c2ccccc21 (stereo in doubt; (+)-24b)", "150 nM"],
  ["Br.Oc1ccc([C@@H]2CN3CCC[C@@H]3c3ccccc32)cc1", "252 nM"],
  ["c1ccc([C@@H]2CN3CCC[C@@H]3c3ccccc32)cc1 (stereo in doubt; 7b)", "172 nM"],
  ["CSc1ccc([C@@H]2CN3CCC[C@@H]3c3ccccc32)cc1 (stereo in doubt; (+)-48b)", "274 nM"],
  ["Br.Fc1ccc([C@@H]2CN3CCC[C@@H]3c3cc(F)ccc32)cc1", "536 nM"],
  ["FC(F)(F)c1cccc([C@@H]2CN3CCC[C@H]3c3ccccc32)c1", "86 nM"]
]}

Each recorded value in this set is attributed to ChEMBL document CHEMBL1123812.
